The measurements presented in this section are drawn from patent US12077503B2.

Test system: wheat (Triticum aestivum)
TEST SUMMARY: Test A postemergence
Assay type: in vivo
CONDITION: Postemergence, 500 g ai/ha; 0 to 100 scale where 0 is no effect and 100 is complete control
Attribute: Plant response rating, Wheat
ENDPOINT: Plant response rating, Wheat

compound="O=C1NCC(c2cc(F)cc(C(F)(F)F)c2)C1C(=O)Nc1ccc(F)cc1F (centres unmarked)" endpoint="Plant response rating, Wheat" val=50
compound="CCc1cccc(C2CN(C)C(=O)C2C(=O)Nc2cccc(F)c2F)c1 (centres unmarked)" endpoint="Plant response rating, Wheat" val=70
compound="CN1CC(c2cccc(OC(F)F)c2)C(C(=O)Nc2ccc(F)cc2F)C1=O (centres unmarked)" endpoint="Plant response rating, Wheat" val=60
compound="O=C1NCC(c2cccc(F)c2F)C1C(=O)Nc1ccc(F)cc1F (centres unmarked)" endpoint="Plant response rating, Wheat" val=20
compound="Cc1ccc(C2CN(C)C(=O)C2C(=O)Nc2ccc(F)cc2F)c(F)c1 (centres unmarked)" endpoint="Plant response rating, Wheat" val=50
